Tested on: N. gonorrhoeae clinical isolates
Assay: MIC, agar dilution (CLSI)
Type: cell-based, Neisseria gonorrhoeae
Details: Neisseria gonorrhoeae, strain CDC26 (GCREF2012 023); read-out: MIC
MIC for assorted molecules
API: value field is a number in µg/mL; no unit string.

Problem: Please give the measured MIC for this molecule: CO/N=C(\C(=O)N[C@@H]1C(=O)N2C(C(=O)O)=C(CSc3nc(=O)c(=O)[nH]n3C)CS[C@H]12)c1csc(N)n1
Solution: 0.031

Problem: Please give the measured MIC for this molecule: CC[C@H]1OC(=O)[C@H](C)[C@@H](O[C@H]2C[C@@](C)(OC)[C@@H](O)[C@H](C)O2)[C@H](C)[C@@H](O[C@@H]2O[C@H](C)C[C@H](N(C)C)[C@H]2O)[C@](C)(O)C[C@@H](C)CN(C)[C@H](C)[C@@H](O)[C@]1(C)O
Solution: 0.5

Problem: Please give the measured MIC for this molecule: C=CC1=C(C(=O)O)N2C(=O)[C@@H](NC(=O)/C(=N\OCC(=O)O)c3csc(N)n3)[C@H]2SC1
Solution: 0.063

Now take the following molecule into account.
Problem: Please give the measured MIC for this molecule: CNc1cc(F)cc2c1[nH]c1nc(Oc3cnc(C)nc3)nc(N3CCC4(CC3)CO[C@@H](CO)C4)c12
Solution: 0.0078

----------
System: N. gonorrhoeae clinical isolates
Assay: MIC, agar dilution (CLSI)
Assay type: cell-based, Neisseria gonorrhoeae
Details: Neisseria gonorrhoeae, strain CDC28 (GCREF2012 025); read-out: MIC
MIC for assorted molecules
For clarity, give the value followed by its unit.

The following molecules have reported results that may help.
Problem: Please give the measured MIC for this molecule: CO/N=C(\C(=O)N[C@@H]1C(=O)N2C(C(=O)O)=C(CSc3nc(=O)c(=O)[nH]n3C)CS[C@H]12)c1csc(N)n1 [Cro, ceftriaxone]
Solution: 0.031 µg/mL

Problem: Please give the measured MIC for this molecule: CC[C@H]1OC(=O)[C@H](C)[C@@H](O[C@H]2C[C@@](C)(OC)[C@@H](O)[C@H](C)O2)[C@H](C)[C@@H](O[C@@H]2O[C@H](C)C[C@H](N(C)C)[C@H]2O)[C@](C)(O)C[C@@H](C)CN(C)[C@H](C)[C@@H](O)[C@]1(C)O [Azi, azithromycin]
Solution: 0.25 µg/mL

Problem: Please give the measured MIC for this molecule: C=CC1=C(C(=O)O)N2C(=O)[C@@H](NC(=O)/C(=N\OCC(=O)O)c3csc(N)n3)[C@H]2SC1 [Cfx, cefixime]
Solution: 0.25 µg/mL

Now take the following molecule into account.
Problem: Please give the measured MIC for this molecule: CNc1cc(F)cc2c1[nH]c1nc(Oc3cnc(C)nc3)nc(N3CCC4(CC3)CO[C@@H](CO)C4)c12 [JSF-2414]
Solution: 0.0039 µg/mL

----------
MIC for assorted molecules
Tested on: N. gonorrhoeae clinical isolates
Experiment: MIC, agar dilution (CLSI)
Format: cell-based, Neisseria gonorrhoeae
Conditions: Neisseria gonorrhoeae, strain CDC11 (GCREF2012 007); read-out: MIC

The following molecules have reported results that may help.
Problem: Please give the measured MIC for this molecule: CO/N=C(\C(=O)N[C@@H]1C(=O)N2C(C(=O)O)=C(CSc3nc(=O)c(=O)[nH]n3C)CS[C@H]12)c1csc(N)n1
Solution: 0.031 µg/mL

Problem: Please give the measured MIC for this molecule: CC[C@H]1OC(=O)[C@H](C)[C@@H](O[C@H]2C[C@@](C)(OC)[C@@H](O)[C@H](C)O2)[C@H](C)[C@@H](O[C@@H]2O[C@H](C)C[C@H](N(C)C)[C@H]2O)[C@](C)(O)C[C@@H](C)CN(C)[C@H](C)[C@@H](O)[C@]1(C)O
Solution: 0.25 µg/mL

Problem: Please give the measured MIC for this molecule: CNc1cc(F)cc2c1[nH]c1nc(Oc3cnc(C)nc3)nc(N3CCC4(CC3)CO[C@@H](CO)C4)c12
Solution: 0.0039 µg/mL

Continuing:
Problem: Please give the measured MIC for this molecule: C=CC1=C(C(=O)O)N2C(=O)[C@@H](NC(=O)/C(=N\OCC(=O)O)c3csc(N)n3)[C@H]2SC1
Solution: 0.125 µg/mL
